observed.property: melting point

-- ask Fill blank: measured melting point of the compound O=c1nc(N2CCC3(CC2)OCCCCO3)sc2c([N+](=O)[O-])cc([N+](=O)[O-])cc12 is ____.
-- reply 193 to 195 °C

-- ask What value of measured melting point is listed for N#Cc1cc([N+](=O)[O-])c2sc(N3CCC4(CC3)OCCO4)nc(=O)c2c1 ?
-- reply 217 to 220 °C

-- ask What value of measured melting point is listed for O=c1nc(N2CCC3(CC2)OCCO3)sc2c([N+](=O)[O-])cc([N+](=O)[O-])cc12 ?
-- reply 271 to 273 °C

-- ask State the recorded melting point for this entry: Cc1c([N+](=O)[O-])cc2c(=O)nc(N3CCC4(CC3)OCCO4)sc2c1[N+](=O)[O-]
-- reply 207 to 210 °C

-- ask Any idea what its melting point is? The compound is N#Cc1cc([N+](=O)[O-])c2sc(N3CCC4(CC3)OCCCO4)nc(=O)c2c1
-- reply 230 to 232 °C

-- ask Quick one: melting point for CCOC1(OCC)CCN(c2nc(=O)c3cc([N+](=O)[O-])cc([N+](=O)[O-])c3s2)CC1 ?
-- reply 179 to 181 °C
